Provide the recorded # Sites (off-target integration sites detected) for the entries that follow.
Test system: off-target genomic sites
assay remarks: Off-target oligo insertion based assay in HEK293_Cas9 cells, dgRNAs and sgRNAs (Tables 23, 24)
Type: cell-based, human
details: Table 23; TTR dgRNAs in HekCas9 cells, oligo insertion based assay
One number for each entry.

Query: Supply reported # Sites (off-target integration sites detected) belonging to this sequence: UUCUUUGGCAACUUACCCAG (tested as dual guide RNA, chemistry not given here) [CR003357]
Response: 3

Query: Provide # Sites (off-target integration sites detected) value for the following sequence: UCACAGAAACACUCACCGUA (tested as dual guide RNA, chemistry not given here) [CR005300]
Response: 0

Query: Annotate the sequence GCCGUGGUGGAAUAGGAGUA (tested as dual guide RNA, chemistry not given here) [CR003387] with its measured # Sites (off-target integration sites detected).
Response: 6

Query: Fill in # Sites (off-target integration sites detected) for record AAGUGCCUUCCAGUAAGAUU (tested as dual guide RNA, chemistry not given here) [CR003368]
Response: 2

Query: State its # Sites (off-target integration sites detected): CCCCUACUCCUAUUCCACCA (tested as dual guide RNA, chemistry not given here) [CR003385]
Response: 3

// each listed sequence needs a value for # Sites (off-target integration sites detected)
1. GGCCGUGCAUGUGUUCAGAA (tested as dual guide RNA, chemistry not given here) [CR005304]
2. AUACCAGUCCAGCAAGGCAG (tested as dual guide RNA, chemistry not given here) [CR003338]
3. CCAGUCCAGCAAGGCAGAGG (tested as dual guide RNA, chemistry not given here) [CR003337]
4. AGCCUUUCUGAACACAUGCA (tested as dual guide RNA, chemistry not given here) [CR003351]
5. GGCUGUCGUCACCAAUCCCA (tested as dual guide RNA, chemistry not given here) [CR003391]
6. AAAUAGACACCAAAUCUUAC (tested as dual guide RNA, chemistry not given here) [CR003366]

Response:
1: 0; 2: 2; 3: 10; 4: 1; 5: 0; 6: 1

Kindly give each listed record's # Sites (off-target integration sites detected).
1. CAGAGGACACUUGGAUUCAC (tested as dual guide RNA, chemistry not given here) [CR003343]
2. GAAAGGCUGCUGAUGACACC (tested as dual guide RNA, chemistry not given here) [CR003352]
3. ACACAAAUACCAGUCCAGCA (tested as dual guide RNA, chemistry not given here) [CR003339]

Response:
1. 2
2. 2
3. 3

* * *

Can you tell me Avg % Edit for the items I'm about to list?
Test system: TTR
assay remarks: TTR editing in primary human hepatocytes transfected with Spy Cas9 mRNA and dgRNAs (Table 9)
Assay type: cell-based
details: dgRNA co-transfected with Spy Cas9 mRNA (SEQ ID NO:2)

The cases that follow already have their Avg % Edit on record.
Query: Quote TTR Avg % Edit for entry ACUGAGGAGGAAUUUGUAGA (tested as dual guide RNA, chemistry not given here) [CR003363] .
Response: 16.70%

Query: Give the observed Avg % Edit of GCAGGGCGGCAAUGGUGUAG (tested as dual guide RNA, chemistry not given here) [CR003380] for TTR.
Response: 2.93%

Query: // fetch Avg % Edit; item: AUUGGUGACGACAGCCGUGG (tested as dual guide RNA, chemistry not given here) [CR003389] ; system: TTR
Response: 44.27%

Read the next record carefully.
Query: Print TTR Avg % Edit for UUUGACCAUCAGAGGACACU (tested as dual guide RNA, chemistry not given here) [CR003344] .
Response: 31.50%
